The following molecules are shown together with reported MIC (ppm) against A. versicolor values.
tested on: molds and blue-stain fungi; test: In vitro activity against molds and blue-stain fungi, poison plate assay (MIC); assay type: cell-based; conditions: A. versicolor, malt extract agar, complete inhibition

N#Cc1ccc(C2=NOCC[S+]2[O-])s1 (centres unmarked) [Compound 57] ... 10 ppm
O=S1(=O)CCON=C1c1cccs1 [Compound 34] ... 5 ppm
[O-][S+]1CCON=C1c1ccc(Cl)c(Cl)c1 (centres unmarked) [Compound 4] ... 5 ppm
C[S+]1CCON=C1c1cc(Cl)cc(Cl)c1 (centres unmarked) [Compound 19] ... 25 ppm

State its MIC (ppm) against A. versicolor on molds and blue-stain fungi: [O-][S+]1CCON=C1c1cccs1 (centres unmarked) [Compound 8]
10 ppm

State its MIC (ppm) against A. versicolor on molds and blue-stain fungi: N#Cc1ccc(C2=NOCCS2(=O)=O)s1 [Compound 58]
5 ppm

State its MIC (ppm) against A. versicolor on molds and blue-stain fungi: [O-][S+]1CCON=C1c1ccc(Cl)s1 (centres unmarked) [Compound 60]
2.5 ppm

State its MIC (ppm) against A. versicolor on molds and blue-stain fungi: [O-][S+]1CCON=C1c1cc2ccccc2s1 (centres unmarked) [Compound 87]
2.5 ppm
